Target: human Claudin 18.2 (CLDN18.2) (human, UniProt P56856-2 1-261)
Assay: cell-based or functional assay
quantity_measured: % specific cytotoxicity @ 6.67 nM, NUGC4-CLDN18.2, PBMC (%)
The reply should contain only the number, in %.

q: Find the recorded % specific cytotoxicity @ 6.67 nM, NUGC4-CLDN18.2, PBMC belonging to 364D1A7-H3L1 (antibody, V domains shown, humanized IgG; constant regions not specified) VH: EVQLVESGGGLVQPGGSLRLSCAASGFTFSSFGMHWVRQAPGKGLEWVAYISSGSGSIYYADTVKGRFTLSRDNPKNSLYLQMNSLRAEDTAVYYCATSYYYGNALEYWGQGTTVTVSS VL: DIVMTQSPDSLAVSLGERATINCKSSQSLFNVGNQKNYLTWYQQKPGQPPKLLIYWASTRKSGVPDRFSGSGSGTDFTLTISSLQAEDVAVYYCQNVYSYPLTFGGGTKVEIK and report it.
a: 26.2

q: Find the recorded % specific cytotoxicity @ 6.67 nM, NUGC4-CLDN18.2, PBMC belonging to 413H9F8-cp8 (antibody, V domains shown, humanized IgG; constant regions not specified) VH: DVQLVESGGGLVQPGGSLRLSCAASGFTFSSFGMHWVRQAPGKGLEWVAYISSGSSPIYYVDKLKGRFTISRDNAKNSLYLQMNSLRAEDTAVYYCARAGYAVRNALDYWGQGTLVTVSS VL: DIVMTQSPPTLSLSPGERVTLSCKSSQSLLNVGNQKNYLAWYQQKPGQAPKLLIYGASTRESGIPDRFSGSGSGTDFTLTISSLQPEDFAVYYCQNDLFYPLTFGGGTKVEIK and report it.
a: 27.7

q: Find the recorded % specific cytotoxicity @ 6.67 nM, NUGC4-CLDN18.2, PBMC belonging to 413H9F8-cp2 (antibody, V domains shown, humanized IgG; constant regions not specified) VH: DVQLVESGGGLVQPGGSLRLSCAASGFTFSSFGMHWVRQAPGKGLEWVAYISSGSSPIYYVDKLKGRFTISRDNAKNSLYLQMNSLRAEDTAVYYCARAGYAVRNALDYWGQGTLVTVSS VL: EIVMTQSPPTLSLSPGERVTLSCKSSQSLLNVGNQKNYLAWYQQKPGQAPRLLIYGASTRESGIPARFSGSGSGTDFTLTISSLQPEDFAVYYCQNDLFYPLTFGGGTKVEIK and report it.
a: 32
